Data provenance is patent US7786141B2.

- Tested Target: M4 muscarinic receptor (Homo sapiens, UniProt P08173)
- Construct: expressed in transfected cells; host or cells: CHO (M4-CHO)
- Sequence (P08173 1-479): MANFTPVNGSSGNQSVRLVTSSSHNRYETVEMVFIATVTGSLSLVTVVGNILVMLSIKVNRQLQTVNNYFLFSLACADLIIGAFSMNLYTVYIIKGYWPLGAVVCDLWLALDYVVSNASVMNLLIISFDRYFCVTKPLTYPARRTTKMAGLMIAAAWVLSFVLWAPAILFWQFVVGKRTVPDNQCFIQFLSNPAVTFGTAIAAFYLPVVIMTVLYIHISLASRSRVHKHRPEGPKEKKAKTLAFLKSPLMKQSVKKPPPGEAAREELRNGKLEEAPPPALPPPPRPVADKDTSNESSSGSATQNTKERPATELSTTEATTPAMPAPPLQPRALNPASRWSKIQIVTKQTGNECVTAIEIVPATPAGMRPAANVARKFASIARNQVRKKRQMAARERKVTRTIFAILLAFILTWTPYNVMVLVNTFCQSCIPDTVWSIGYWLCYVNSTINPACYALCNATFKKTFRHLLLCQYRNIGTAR
- Protocol Notes: Functional mobilization of intracellular calcium (FLIPR) in M4-CHO cells
- Type: cell-based
- Conditions Used: M4 receptor, calcium mobilization; read-out: M4 Efficacy
Each item that follows carries a reported Emax.
Recorded Metric: Emax

>  <Compound>
COCCOC(=O)N1CCC(N2CCC3(CC2)CN(C(C)=O)c2ccc(F)cc23)CC1 [compound 284]

>  <Tested Target>
M4 muscarinic receptor (Homo sapiens, UniProt P08173)

>  <Val>
< 65%

$$$$
>  <Compound>
CCOC(=O)N1C2CCC1CC(CN1CCC3(CC1)CNc1ccc(F)cc13)C2 (centres unmarked) [compound 368]

>  <Tested Target>
M4 muscarinic receptor (Homo sapiens, UniProt P08173)

>  <Val>
< 65%

$$$$
>  <Compound>
CCOC(=O)N1CCC(N2CCC3(CC2)CN(C(=O)C2CCC2)c2ccc(F)cc23)CC1 [compound 254]

>  <Tested Target>
M4 muscarinic receptor (Homo sapiens, UniProt P08173)

>  <Val>
65 to 85%

$$$$
>  <Compound>
O=C1CC2(CCN(C[C@@H]3C[C@H]4C=C[C@H]3C4)CC2)c2ccccc21 [compound 238]

>  <Tested Target>
M4 muscarinic receptor (Homo sapiens, UniProt P08173)

>  <Val>
< 65%

$$$$
>  <Compound>
CC(=O)N1CC2(CCN(C3CCCCCC3)CC2)c2cc(F)ccc21 [compound 210]

>  <Tested Target>
M4 muscarinic receptor (Homo sapiens, UniProt P08173)

>  <Val>
< 65%

$$$$
>  <Compound>
Clc1ccc2c(c1)C1(CCO2)CCN([C@@H]2C[C@@H]3CC[C@H]2C3)CC1 [compound 369]

>  <Tested Target>
M4 muscarinic receptor (Homo sapiens, UniProt P08173)

>  <Val>
> 85%

$$$$
>  <Compound>
CCCC1CCC(N2CCC3(CC2)CNc2ccccc23)CC1 (centres unmarked) [compound 334]

>  <Tested Target>
M4 muscarinic receptor (Homo sapiens, UniProt P08173)

>  <Val>
< 65%

$$$$
>  <Compound>
Cc1ccc2c(c1)C1(CCN(CC3CC4C=CC3C4)CC1)CN2 (centres unmarked) [compound 3]

>  <Tested Target>
M4 muscarinic receptor (Homo sapiens, UniProt P08173)

>  <Val>
65 to 85%

$$$$
>  <Compound>
O=C(O[C@H]1CCOC1)N1C2CCC1CC(N1CCC3(CC1)COc1ccc(F)cc13)C2 (some centres unmarked) [compound 212]

>  <Tested Target>
M4 muscarinic receptor (Homo sapiens, UniProt P08173)

>  <Val>
< 65%

$$$$
>  <Compound>
C#CCOC(=O)N1CCC(N2CCC3(CC2)CN(C(C)=O)c2ccc(C)cc23)CC1 [compound 81]

>  <Tested Target>
M4 muscarinic receptor (Homo sapiens, UniProt P08173)

>  <Val>
< 65%

$$$$
>  <Compound>
CCOC(=O)N1CCC(N2CCC3(CC2)CN(C(=O)c2ccccc2OC)c2ccc(F)cc23)CC1 [compound 262]

>  <Tested Target>
M4 muscarinic receptor (Homo sapiens, UniProt P08173)

>  <Val>
< 65%

$$$$
>  <Compound>
CC(=O)N1CC2(CCN(C3CCN(C(=O)O[C@@H]4CCOC4)CC3)CC2)c2cc(C)ccc21 [compound 279]

>  <Tested Target>
M4 muscarinic receptor (Homo sapiens, UniProt P08173)

>  <Val>
< 65%

$$$$
>  <Compound>
c1ccc2c(c1)CCC21CCN(CC2CCOCC2)CC1 [compound 18]

>  <Tested Target>
M4 muscarinic receptor (Homo sapiens, UniProt P08173)

>  <Val>
> 85%

$$$$
>  <Compound>
CCOC(=O)N1CCC(CN2CCC3(CC2)C(=O)Nc2ccccc23)CC1 [compound 319]

>  <Tested Target>
M4 muscarinic receptor (Homo sapiens, UniProt P08173)

>  <Val>
< 65%

$$$$
>  <Compound>
CCOC(=O)N1CCC(N2CCC3(CC2)CN(C(C)=O)c2ccc(-c4cccc(C)c4)cc23)CC1 [compound 6]

>  <Tested Target>
M4 muscarinic receptor (Homo sapiens, UniProt P08173)

>  <Val>
65 to 85%

$$$$
>  <Compound>
CCOC(=O)N1CCC(N2CCC3(CC2)CN(C(=O)OCCF)c2ccc(F)cc23)CC1 [compound 370]

>  <Tested Target>
M4 muscarinic receptor (Homo sapiens, UniProt P08173)

>  <Val>
> 85%

$$$$
>  <Compound>
CC(C)(C)COC(=O)N1C2CCC1CC(N1CCC3(CC1)COc1ccc(F)cc13)C2 (centres unmarked) [compound 247]

>  <Tested Target>
M4 muscarinic receptor (Homo sapiens, UniProt P08173)

>  <Val>
> 85%

$$$$
>  <Compound>
CCOC(=O)N1CCC(N2CCC3(CC2)CN(C(=O)OCC(C)C)c2ccc(F)cc23)CC1 [compound 30]

>  <Tested Target>
M4 muscarinic receptor (Homo sapiens, UniProt P08173)

>  <Val>
> 85%

$$$$
>  <Compound>
Clc1ccc2c(c1)C1(CCN(C3CC4CCC(C4)C3)CC1)CN2 (centres unmarked) [compound 85]

>  <Tested Target>
M4 muscarinic receptor (Homo sapiens, UniProt P08173)

>  <Val>
65 to 85%

$$$$
>  <Compound>
CCOC(=O)N1CCC(N2CCC3(CC2)CN(C(=O)OC)c2ccc(F)cc23)CC1 [compound 173]

>  <Tested Target>
M4 muscarinic receptor (Homo sapiens, UniProt P08173)

>  <Val>
> 85%

$$$$
